Each recorded value in this set is attributed to patent US11166460B2.

system: Botrytis cinerea; experiment: Fungicidal activity, fungi growth rate method, BC; format: cell-based; conditions: Botrytis cinerea; 50 μg/mL; read-out: Fungicidal activity, inhibition, BC
readout: inhibition at 50 µg/mL (%)
One number for each entry, in %.

1. O=C(NC(Cc1ccccc1)C(=O)N1CCC(O)(c2ccc(Br)cc2)CC1)C1CCCCC1 (centres unmarked) : 29
2. O=C(N/C(=C\c1ccccc1)C(=O)N1CCC(O)(c2ccc(Br)cc2)CC1)c1ccc([N+](=O)[O-])cc1 : 11
3. O=C(N/C(=C\c1ccccc1)C(=O)N1CCC(c2nc(CO)cs2)CC1)c1ccccc1 : 7

For every item below, please supply its inhibition at 50 µg/mL.
1. O=C(N/C(=C\c1ccccc1)C(=O)N1CCC(O)(c2ccc(Br)cc2)CC1)C1CC1
2. COc1ccc(CNC(=O)/C(=C/c2ccccc2)NC(=O)c2ccccc2)cc1
3. O=C(N/C(=C\c1ccc(C(F)(F)F)cc1)C(=O)N1CCC(O)(c2ccc(Br)cc2)CC1)c1ccccc1
4. Cc1ccc(/C=C(\NC(=O)c2ccccc2)C(=O)N2CCC(O)(c3ccc(Br)cc3)CC2)cc1
5. CC(C)(C)OC(=O)N1CCC(c2nc(/C=C3\N=C(c4ccccc4)OC3=O)cs2)CC1

Out:
1. 21
2. 12
3. 7
4. 10
5. 10
